Target: Genome polyprotein (Hepatitis C virus genotype 1b (strain HC-J4) (HCV), UniProt O92972)
Sequence (O92972 2420-3010 limits assumed): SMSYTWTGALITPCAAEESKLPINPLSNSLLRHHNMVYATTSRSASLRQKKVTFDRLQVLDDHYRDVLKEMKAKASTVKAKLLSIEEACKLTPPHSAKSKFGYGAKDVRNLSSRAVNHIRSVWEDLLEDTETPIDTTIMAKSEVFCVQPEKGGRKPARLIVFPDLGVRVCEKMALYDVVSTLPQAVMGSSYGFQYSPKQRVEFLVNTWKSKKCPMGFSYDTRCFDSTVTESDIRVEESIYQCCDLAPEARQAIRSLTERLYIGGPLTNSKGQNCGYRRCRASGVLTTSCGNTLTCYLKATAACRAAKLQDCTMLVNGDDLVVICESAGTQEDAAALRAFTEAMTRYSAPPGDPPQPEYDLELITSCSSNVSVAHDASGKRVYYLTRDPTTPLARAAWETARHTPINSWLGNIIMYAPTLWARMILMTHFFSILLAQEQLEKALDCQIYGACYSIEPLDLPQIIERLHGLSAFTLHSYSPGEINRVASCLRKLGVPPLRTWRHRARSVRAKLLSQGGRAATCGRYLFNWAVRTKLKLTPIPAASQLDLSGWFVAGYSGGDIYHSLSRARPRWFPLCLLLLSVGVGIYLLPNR
Experiment: Inhibition Assay: Inhibition assay using HCV NS5B.
property: IC50 (µM)

- CN1C/C=C\CCNC(=O)Cn2c(-c3ccc(Cl)cc3)c(C3CCCCC3)c3ccc(cc32)C(=O)NS1(=O)=O: 0.17
